Every entry's value here was drawn from patent US5840867A.

In this section, each of the substances is paired with its reported Ki.
# Test system: thrombin
# assay: Steady-state inhibition kinetics by clotting time assay (Ki)
# Assay type: biochemical
# protocol_conditions: constant thrombin, varying fibrinogen concentration

{"substance": "GGTTGGTGTGGTU'GG (DNA GGTTGGTGTGGTNGG; 5-pentynyluracil, further chemistry not given here) [15-mer thrombin aptamer analog; U' indicates 5-pentynyluracil]", "target_or_test_system": "thrombin", "unit_annotation": "nM", "Ki": 20}
{"substance": "5' GGTTGGTGTGGTTGG 3'", "target_or_test_system": "thrombin", "unit_annotation": "nM", "Ki": 20}
{"substance": "GGTTGGTGTGGTTGG#G#T (DNA GGTTGGTGTGGTTGGGT; MEA linkages, chemistry not fully specified) [closely related 17-mer thrombin aptamer analog; # indicates a MEA linkage]", "target_or_test_system": "thrombin", "unit_annotation": "nM", "Ki": 35}
{"substance": "GGTTGGTGTGGTT*G*G", "target_or_test_system": "thrombin", "unit_annotation": "nM", "Ki": 40}
{"substance": "GGTTGG(dU)G(dU)GGTTGG (DNA GGTTGGNGNGGTTGG; dU in place of thymine) [15-mer thrombin aptamer analog with uracil (dU) in place of thymine]", "target_or_test_system": "thrombin", "unit_annotation": "nM", "Ki": 15}
{"substance": "GG(dU)TGGTGTGG(dU)TGG (DNA GGNTGGTGTGGNTGG) [15-mer thrombin aptamer analog with uracil (dU) in place of thymine]", "target_or_test_system": "thrombin", "unit_annotation": "nM", "Ki": 80}
{"substance": "G*G*T*T*G*G*T*G*T*G*G*T*T*G*G", "target_or_test_system": "thrombin", "unit_annotation": "nM", "Ki": 280}
